System: U2OS
experiment notes: Multiplex assay against U2OS
Type: toxicity, cell-based
assay context: human, 24 h, 1 µM, compound concentration 1 uM, replicate 1
Catalogue of Population Tubulin-Different-Phenotype (%) values
Numbers only; they are read as %.

> print(dat)
                                   compound  test.system  uom  recorded.value
1  N#Cc1cnc(Nc2cc(NC[C@H]3CNCCO3)c(C(F)(F)F)cn2)cn1         U2OS    %              31
2  Cl.Cl.Nc1ncnc2c1c(-c1cccc(OCc3ccccc3)c1)cn2[C@H]1C[C@@H](CN2CCC2)C1         U2OS    %              34
3  Cc1nc(Cc2cccc(C(F)(F)F)c2)sc1-c1ccc(C(N)=O)nc1 [TP-024n]         U2OS    %               8

Here is another compound to look at.
Tested system U2OS; Population Tubulin-Different-Phenotype (%) recorded for CCn1c(-c2nonc2N)nc2cnc(Oc3cccc(NC(=O)c4ccc(OCCN5CCOCC5)cc4)c3)cc21 [GSK-269962A] was 8

---

Test system: Fibroblast
experiment notes: Multiplex assay against human fibroblast
Assay type: toxicity, cell-based
assay context: 12 h, 10 µM, compound concentration 10 uM, replicate 1
Entries annotated with measured Population Membrane Permeable-Phenotype (%)

# annotated cases, reported Population Membrane Permeable-Phenotype (%) shown
> print(dat)
                                   compound  recorded.value
1  CCn1c(-c2nonc2N)nc2cnc(Oc3cccc(NC(=O)c4ccc(OCCN5CCOCC5)cc4)c3)cc21 [GSK-269962A]             21%
2  N#Cc1cnc(Nc2cc(NC[C@H]3CNCCO3)c(C(F)(F)F)cn2)cn1 [SRA-737]             11%
3  Cc1cc2c(cc1N1C(=O)c3cccc4c(CCCO)ccc(c34)C1=O)n(C)c(=O)n2C             21%
4  CN(C)CCOc1ccc(-c2nc(-c3ccncc3)c(-c3ccc4c(c3)CC/C4=N\O)[nH]2)cc1 [SB590885]              4%
5  COc1cc2c(Nc3ccc(NC(=O)c4ccccc4)cc3)ncnc2cc1OCCCN1CCOCC1              9%

Input Cc1nc(Cc2cccc(C(F)(F)F)c2)sc1-c1ccc(C(N)=O)nc1 [TP-024n] . Output Population Membrane Permeable-Phenotype (%): 2%

Form: compound = COc1ccc(NS(=O)(=O)c2sc3ccc(Cl)cc3c2C)cc1N1CCNCC1.Cl ; Population Membrane Permeable-Phenotype (%) = 1%

Recorded Population Membrane Permeable-Phenotype (%) (compound Cl.Cl.NC1(c2ccc(-c3nc4ccn5c(=O)[nH]nc5c4cc3-c3ccccc3)cc2)CCC1 ): 7%

---

Tested on: Fibroblast
experiment notes: Multiplex assay against human fibroblast
Format: toxicity, cell-based
assay context: 12 h, 1 µM, compound concentration 1 uM, replicate 2
If the reported Population Healthy Nuclei (%) equals or exceeds 70%, assign 1 (yes). If not, assign 0 (no).

The following compounds have reported results that may help.
> print(dat)
                                   compound  category
1  N#Cc1cnc(Nc2cc(NC[C@H]3CNCCO3)c(C(F)(F)F)cn2)cn1    0 (no)
2  CC(C)(C)c1cnc(CSc2cnc(NC(=O)C3CCNCC3)s2)o1    0 (no)
3  CC(=O)c1cc(-c2cc(C(=O)NC3CC3)ccc2C)c2ncccn12   1 (yes)
4  CC(C)Oc1ccc(C(=O)N[C@H](CNC(=O)CN(C)C)Cc2ccc(-c3cn4cccc([C@H](C)O)c4n3)cc2)cc1Cl [GSK-923295A]    0 (no)
5  O=C(O)c1ccc2cc(-c3ccc(O)c(C45CC6CC(CC(C6)C4)C5)c3)ccc2c1   1 (yes)

Reported Population Healthy Nuclei (%) at or above 70%? CC(C)N1CCC(C)(C)c2cc(C#Cc3ccc(C(=O)O)cc3)ccc21 1 (yes)

Could you verify whether the entry CCOc1cc(N2CCC(O)CC2)ccc1Nc1ncc2c(n1)N(C1CCCC1)CCC(=O)N2C shows Population Healthy Nuclei (%) of no less than 70%? 0 (no)
